Entries annotated with measured EC50
Tested on: p21 induction in HCT116 cells
Experiment: p21 induction in HCT116 cells
Format: cell-based
Settings: Homo sapiens, HCT-116, 24 h, HCT116 cells, 24 h compound incubation; read-out: P21_EC50

compound	EC50
CCc1c(N2CCN(C(=O)c3ncnc(C)c3O)CC2)c(=O)c2ncc(Cl)nc2n1CC(=O)Nc1ccc(C(F)(F)F)cc1Cl	> 5000 nM
CCc1c(N2CCN(C(=O)c3ncnc(C)c3O)[C@H]3CC[C@@H]32)c(=O)c2nc(N3CC[C@H]4C[C@H]43)cnc2n1CC(=O)Nc1ccc(C(F)(F)F)cc1Cl (single isomer, unassigned)	< 500 nM
CCc1c(N2CCN(C(=O)c3c(OC)ncc(C)c3O)[C@H]3CCC[C@H]32)c(=O)c2nc(N(C)C)cnc2n1CC(=O)Nc1ccc(C(F)(F)F)cc1Cl (single isomer, unassigned)	2000 to 5000 nM
CCc1c(N2CCN(C(=O)c3ncnc(C)c3O)C[C@@H]2C)c(=O)c2nc(N3CCC3)cnc2n1CC(=O)Nc1ccc(C(F)(F)F)cc1Cl	500 to 2000 nM
CCc1c(N2CCN(C(=O)c3ncnc(C)c3O)[C@@H]3CC[C@H]32)c(=O)c2nc(C=C3CCC3)cnc2n1CC(=O)Nc1ccc(C(F)(F)F)cc1Cl (racemic)	< 500 nM
CCc1c(N2CCN(C(=O)c3ncc4c(c3O)CCO4)CC2)c(=O)c2ncc(C)nc2n1CC(=O)Nc1ccc(C(F)(F)F)cc1Cl	> 5000 nM

Data request: Look up EC50 with p21 induction in HCT116 cells for this compound: CCc1c(N2CCN(C(=O)c3ncnc(C)c3O)CC2)c(=O)c2nc(N3CC(F)C3)cnc2n1CC(=O)Nc1ccc(C(F)(F)F)cc1Cl
Data returned: 2000 to 5000 nM

Data request: What value of EC50 on p21 induction in HCT116 cells does CCc1c(N2CCN(C(=O)c3ncnc(C)c3O)CC2)c(=O)c2nc(C3=CCOCC3)cnc2n1CC(=O)Nc1ccc(C(F)(F)F)cc1Cl have?
Data returned: > 5000 nM

All figures here come from patent US20250034136A1.
